Target: T1, EsCas13d, nuclease-dead (Eubacterium siraeum, UniProt B0MS50, R295A;H300A;R849A;H854A)
T1 sequence: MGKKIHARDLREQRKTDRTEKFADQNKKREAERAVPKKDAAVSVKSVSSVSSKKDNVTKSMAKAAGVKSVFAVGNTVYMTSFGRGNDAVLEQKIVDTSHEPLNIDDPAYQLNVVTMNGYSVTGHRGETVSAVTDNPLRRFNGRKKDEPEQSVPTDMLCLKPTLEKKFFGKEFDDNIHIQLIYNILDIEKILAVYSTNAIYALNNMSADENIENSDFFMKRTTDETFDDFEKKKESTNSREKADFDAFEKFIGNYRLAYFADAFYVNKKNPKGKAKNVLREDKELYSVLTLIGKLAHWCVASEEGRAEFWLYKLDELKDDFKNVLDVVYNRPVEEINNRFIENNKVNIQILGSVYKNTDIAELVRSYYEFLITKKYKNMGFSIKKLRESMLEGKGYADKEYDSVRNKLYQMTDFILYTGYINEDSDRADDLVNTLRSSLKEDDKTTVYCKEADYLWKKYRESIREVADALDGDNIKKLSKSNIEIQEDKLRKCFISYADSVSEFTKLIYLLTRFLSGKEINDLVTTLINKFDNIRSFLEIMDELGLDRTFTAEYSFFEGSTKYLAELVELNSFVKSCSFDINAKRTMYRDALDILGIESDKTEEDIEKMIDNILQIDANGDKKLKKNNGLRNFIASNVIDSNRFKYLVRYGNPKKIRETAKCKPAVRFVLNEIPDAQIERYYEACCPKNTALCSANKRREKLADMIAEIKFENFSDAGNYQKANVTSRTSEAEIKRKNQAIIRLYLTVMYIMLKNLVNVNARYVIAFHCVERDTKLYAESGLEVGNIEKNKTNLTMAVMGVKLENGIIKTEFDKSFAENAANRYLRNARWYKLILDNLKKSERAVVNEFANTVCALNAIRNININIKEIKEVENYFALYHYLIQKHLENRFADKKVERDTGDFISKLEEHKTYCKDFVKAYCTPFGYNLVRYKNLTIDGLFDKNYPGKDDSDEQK
Assay: crRNA (strand 1, pre-loaded); Mg2+; 40 mM Tris-HCl pH 7.5, 150 mM NaCl, 6 mM MgCl2, 1 mM DTT, 0.1% Tween-20, 0.2 mg/ml BSA; 25 C; 10 min per concentration, then washed
Details: tags: His6-TwinStrep-SUMO cleaved; N-terminal SNAP kept (SNAP-Surface 488); label: 3' end held by stalled T7 RNA polymerase
Experimental Endpoint: Kd (µM)

target 2 MT 5'PFS UUU 3'PFS CCG (mixed) RNA 1: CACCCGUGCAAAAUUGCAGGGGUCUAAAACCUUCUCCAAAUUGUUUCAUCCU RNA 2: GGGAAUGGAUCCACAUCUACGAAUUCUUUAGGAUGAAACAAUUUGGAGAAGCCGAGAUCGGAAGAGCACACGU :: 0.0098
target 1 MT 5'PFS CUA 3'PFS AUA (mixed) RNA 1: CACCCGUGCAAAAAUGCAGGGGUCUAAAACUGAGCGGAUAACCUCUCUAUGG RNA 2: GGGAAUGGAUCCACAUCUACGAAUUCCUACCAUAGAGAGGUUAUCCGCUCAAUAAGAUCGGAAGAGCACACGU :: 0.00715
target 3 U2G,C6A (mixed) RNA 1: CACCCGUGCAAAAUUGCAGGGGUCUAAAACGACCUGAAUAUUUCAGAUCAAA RNA 2: GGGAAUGGAUCCACAUCUACGAAUUCGUUUUUGAUCUGAAAUAUUAAGGGCUGCAGAUCGGAAGAGCACACGU :: 0.0114
target 1 MT 5'PFS GAC 3'PFS UCU (mixed) RNA 1: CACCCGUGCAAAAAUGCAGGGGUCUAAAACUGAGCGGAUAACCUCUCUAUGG RNA 2: GGGAAUGGAUCCACAUCUACGAAUUCGACCCAUAGAGAGGUUAUCCGCUCAUCUAGAUCGGAAGAGCACACGU :: 0.0128
target 1 MT 5'PFS AUU 3'PFS AAG (mixed) RNA 1: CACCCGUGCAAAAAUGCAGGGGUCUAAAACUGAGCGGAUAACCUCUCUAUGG RNA 2: GGGAAUGGAUCCACAUCUACGAAUUCAUUCCAUAGAGAGGUUAUCCGCUCAAAGAGAUCGGAAGAGCACACGU :: 0.095
target 1 insA 3' of 22,insG 3' of 21 (mixed) RNA 1: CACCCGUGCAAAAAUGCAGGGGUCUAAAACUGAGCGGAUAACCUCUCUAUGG RNA 2: GGGAAUGGAUCCACAUCUACGAAUUCGUACACGAUAGAGAGGUUAUCCGCUCACCGAGAUCGGAAGAGCACACGU :: 0.043
target 1 insU 3' of 18,insU 3' of 7 (mixed) RNA 1: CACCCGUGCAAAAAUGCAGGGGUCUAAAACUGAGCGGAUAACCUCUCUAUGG RNA 2: GGGAAUGGAUCCACAUCUACGAAUUCGUACCAUAUGAGAGGUUAUCUCGCUCACCGAGAUCGGAAGAGCACACGU :: 0.047
target 1 insA 3' of 5,insA 3' of 3 (mixed) RNA 1: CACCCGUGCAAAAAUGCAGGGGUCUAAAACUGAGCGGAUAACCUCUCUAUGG RNA 2: GGGAAUGGAUCCACAUCUACGAAUUCGUACCAUAGAGAGGUUAUCCGACUACACCGAGAUCGGAAGAGCACACGU :: 0.0068
target 1 MT 5'PFS GUC 3'PFS UUC (mixed) RNA 1: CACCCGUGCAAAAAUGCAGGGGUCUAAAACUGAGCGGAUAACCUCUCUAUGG RNA 2: GGGAAUGGAUCCACAUCUACGAAUUCGUCCCAUAGAGAGGUUAUCCGCUCAUUCAGAUCGGAAGAGCACACGU :: 0.0191
target 1 insU 3' of 6,insC 3' of 1 (mixed) RNA 1: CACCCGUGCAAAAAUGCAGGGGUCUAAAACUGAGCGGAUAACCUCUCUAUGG RNA 2: GGGAAUGGAUCCACAUCUACGAAUUCGUACCAUAGAGAGGUUAUCCUGCUCACCCGAGAUCGGAAGAGCACACGU :: 0.0117
target 2 MT 5'PFS AGG 3'PFS CCG (mixed) RNA 1: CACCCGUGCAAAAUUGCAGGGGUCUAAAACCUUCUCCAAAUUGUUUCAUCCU RNA 2: GGGAAUGGAUCCACAUCUACGAAUUCAGGAGGAUGAAACAAUUUGGAGAAGCCGAGAUCGGAAGAGCACACGU :: 0.0082
target 3 del4,del8 (mixed) RNA 1: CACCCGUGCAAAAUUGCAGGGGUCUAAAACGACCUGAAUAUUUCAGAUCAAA RNA 2: GGGAAUGGAUCCACAUCUACGAAUUCGUUUUUGAUCUGAAAUAUCAGUCUGCAGAUCGGAAGAGCACACGU :: 0.097
target 2 MT 5'PFS GUU 3'PFS CAA (mixed) RNA 1: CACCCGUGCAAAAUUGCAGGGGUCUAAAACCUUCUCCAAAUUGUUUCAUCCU RNA 2: GGGAAUGGAUCCACAUCUACGAAUUCGUUAGGAUGAAACAAUUUGGAGAAGCAAAGAUCGGAAGAGCACACGU :: 0.0066
target 1 insA 3' of 15,insG 3' of 10 (mixed) RNA 1: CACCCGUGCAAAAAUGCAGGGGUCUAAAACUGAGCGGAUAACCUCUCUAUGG RNA 2: GGGAAUGGAUCCACAUCUACGAAUUCGUACCAUAGAGAAGGUUGAUCCGCUCACCGAGAUCGGAAGAGCACACGU :: 0.0136

Where these numbers come from: paper PMC10786891
